- System: KM12 colon
- Experiment Notes: NCI-60 one-dose screen, 48 h
- Condition Notes: 10 µM unless noted
- Protocol: Growth inhibition of the KM12 human tumor cell line is measured as a screen for anti-cancer activity. Cells are grown in 96 well plates and exposed to the test compound for 48 hours. Compounds are tested at a single concentration, which is 10^-5 M for most compounds. The reported endpoint is percent growth (GI% or GIPRCNT), where numbers from 0 - 100% represent growth inhibition, and numbers from -100% - 0 represent cell death. For example, a value of 40 represents 60% growth inhibition. […]
About 83,000 compounds went through this panel and 20% of them were active in at least one assay; those are over-represented in the sample as a whole. Calls of active or inactive are those of the source. Rule for the calls: active = growth percent below 10; inactive = the rest.
Give one outcome, nothing more. List: Yes for active, No for inactive

Ask | Recorded call for COc1cc2c(c(OC)c1)C1c3cc(OC)ccc3NC(=O)N1CC2 (stereo unspecified) ?
Reply | No

Ask | Recorded call for N#CC1C(=O)NC(c2ccccc2[N+](=O)[O-])c2sc3c(F)cccc3c21 (stereo unspecified) ?
Reply | No

Ask | Recorded call for "CC[C@]12C=CCN3CC[C@@]4(c5ccc(OC)cc5N(C)[C@H]4[C@@](O)(C(=O)OC)[C@@H]1OC(=O)CCC(=O)O[C@H]1CC[C@H]4[C@@H]5CCC6=CC(=O)CC[C@@H]6[C@H]5CC[C@]14C)[C@@H]32" ?
Reply | Yes

Ask | Recorded call for "CCOc1cc(/C=N\NC(=O)N/N=C/c2ccc(O)c(OCC)c2)ccc1O" ?
Reply | No

Ask | Recorded call for "C=C(C)[C@@H]1CC[C@]2(C(=O)NCCCCCCN(CCCN)CCCN)CC[C@]3(C)[C@H](CC[C@@H]4[C@@]5(C)CC[C@H](OCCCN)C(C)(C)[C@@H]5CC[C@]43C)[C@@H]12" ?
Reply | No

Ask | Recorded call for "COc1c(B(O)O)cccc1-c1nc2ccc3[nH]ncc3c2c2c1CCC2" ?
Reply | No

Next up:
Ask | Recorded call for "C=C(C)[C@@H]1CC[C@]2(C(=O)OC)CC[C@]3(C)[C@H](CC[C@@H]4[C@@]5(C)CC/C(=N\OCCC(=NCCC#N)NOCCC#N)C(C)(C)[C@@H]5CC[C@]43C)[C@@H]12" ?
Reply | No

====

Reported growth values for the following compounds.
- System: IGROV1 ovarian
- Experiment Notes: NCI-60 one-dose screen, 48 h (100 = growth as untreated, 0 = no growth, -100 = all killed)
- Condition Notes: 10 µM unless noted
This is part of a sample that, as a whole, favours compounds with a hit. Of some 83,000 tested, about 20% had one in any assay. Active and inactive are the calls of the source. How the source made its calls: active means growth percent below 10; inactive means the rest.

Ask | Report growth for "CCCCNC(=O)NS(=O)(=O)Cc1ccccc1"
Reply | 97.3% (inactive)

Ask | Report growth for "N=C(N)c1ccc(-c2ccc(-c3ccc(-c4cccs4)s3)s2)cc1F"
Reply | 93.5% (inactive)

Ask | Report growth for "c1cc2ccc1CNCCN1CCNCc3ccc(cc3)Oc3ccc(cc3)CNCCN(CCNCc3ccc(cc3)O2)CCNCc2ccc(cc2)Oc2ccc(cc2)CNCC1"
Reply | -64.3% (active)

Ask | Report growth for "C=CCCCCOc1ccccc1-c1cnc(OCCCCC=C)n1C"
Reply | 62.9% (inactive)

Ask | Report growth for "CC1(C)CC(=O)c2c(ccc(C(=O)C[C@@H](N)CO)c2N)O1"
Reply | 12.9% (inactive)

Others:
Ask | Report growth for "COC(=O)[C@]1(C)CC[C@]2(C)CC[C@]3(C)C(=CC(=O)[C@@H]4[C@@]5(C)CCC(=O)NC(C)(C)[C@@H]5CC[C@]43C)[C@@H]2C1"
Reply | -55.5% [100 µM] (active)

Ask | Report growth for "CCCCCN(CCCCC)CCCCCCCCN1CCCc2ccccc21"
Reply | 76.4% (inactive)

Ask | Report growth for "Cn1cc(-c2noc(-c3cn(C)c4ncccc34)n2)c2cc(Cl)ccc21"
Reply | 99.8% (inactive)

Ask | Report growth for "Cc1ccc(C2=C/C(=C/c3ccc(Br)cc3)C(=O)N2CCc2ccc(S(N)(=O)=O)cc2)cc1"
Reply | 85.5% (inactive)

Ask | Report growth for "O=C1C(Cl)=C(Nc2ccc3cn[nH]c3c2)C(=O)c2ccccc21"
Reply | -83.5% (active)

Ask | Report growth for "O=C(CSc1nc2ccc([N+](=O)[O-])cc2[nH]1)Nc1ccc(F)c(Cl)c1"
Reply | 36.1% (inactive)

Ask | Report growth for "COc1cc2c(cc1OC(C)=O)C(=O)CCCC2"
Reply | 78.8% (inactive)

Ask | Report growth for N#CC1C(=O)NC(c2ccccc2[N+](=O)[O-])c2sc3c(F)cccc3c21 (stereo not given)
Reply | 0.306% (active)

Ask | Report growth for "CC(C)OC(=O)Nc1cc(F)ccc1F"
Reply | 93.7% (inactive)

Ask | Report growth for "O=C(Nc1ccc(CN2CCOCC2)c(C(F)(F)F)c1)c1nc2ccc3[nH]ncc3c2c2c1CCCC2"
Reply | 95.8% (inactive)
